Biological target: pre-pro-insulin glargine
value_kind: Purity Insulin Glargine (area %)

{"protein": "trypsin variant SEQ ID NO: 78 (protein) IVGGYTCAANSIPYQVSLNSGSHRCGGSLINSQWVVSAAHCYKSRIQVRLGEHNIHVLEGNEQFINAAKIITHPNFNPNTLDNDIMLIKLSSPATLNSHVATVSLPTSCAAAGTECLISGWGNTCSSGSSYPSLLQCLKAPVLSDSSCKSSYPGQITGNMICVGFLEGGKDACQGDSGGPVVCNGQLQGIVSSGYGCAQKNKPGVYTKVCNYVNWIQQTIAAN", "value_kind": "Purity Insulin Glargine", "result_value": 85.1}
{"protein": "trypsin variant SEQ ID NO: 80 (protein) IVGGYTCAANSIPYQVSLNSGSHRCGGSLINSQWVVSAAHCYKSRIQVRLGEHNIHVLEGNEQFINAAKIITHPNFNPNTLDNDIMLIKLSSPATLNSHVATVSLPTSCAAAGTECLISGWGNTSSSGSSMPSLLQCLKAPVLSDSSCKSSYPGQITGNMICVGFLEGGKDACQGDSGGPVVCNGQLQGIVSSGYGCAQKNKPGVYTKVCNYVNWIQQTIAAN", "value_kind": "Purity Insulin Glargine", "result_value": 90.1}
{"protein": "trypsin variant SEQ ID NO: 111 (protein) IVGGYTCAANSIPYQVSLNSGSHRCGGSLINSQWVVSAAHCYKPRIQVRLGEHNIHVLEGNEQFINAAKIITHPNFNPNTLDNDIMLIKLSSPATLNSHVATVSLPTSCAAAGTECLISGWGNTSSSGSSYPSLLQCLKAPVLSDSSCKSSYPGQITGNMICVGFLEGGADACQGDSGGPVVCNGQLQGIVSSGYGCAQKNKPGVYTKVCNYVNWIQQTIAAN", "value_kind": "Purity Insulin Glargine", "result_value": 85.9}
